We begin with a simple list: items and their reported Kd.
target-entity: RSV prefusion F (preF), DS-Cav1 (respiratory syncytial virus, UniProt P03420 26-513)
test-protocol: BLI, IgG on sensor, 100 nM antigen
measured-quantity: Kd

[[record]]
binder = "ADI-41454 (antibody, V domains shown, IgG1; also called Ab 738) VH: QVQLVQSGAEVKKPGASVKVSCKASGYTFTHFGISWVRQAPGQGLEWMGWISIYNGNTNYAQKIQGRATMTTDASTSTAYMELRSLTSDDTAVYYCAREPPSTTAAATSDYWGQGTLVTVSS VL: DIVMTQSPLSLPVTLGQPASISCRSSQSLVYIEGNTYLSWFQQRPGQSPRRLIYKVSNRDSGVPDRFSGSGSGTDFTLKISRVEAEDVGLYYCMQGTHWPRTFGQGTKLEIK"
measured_quantity = "Kd"
observed_value = "0.588 nM"

[[record]]
binder = "ADI-41432 (antibody, V domains shown, IgG1) VH: QVQLVQSGAEVKKPGYSVKVSCKASGGTFSTFGISWVRQAPGLGLEWMGGIIPLFGTADYSKKYQGRVTITADESTSTGYMELNSLTPEDTAVYYCARSPGHLWSRYDAFEVWGQGTTVTVSS VL: QPVLTQPRSVSGSPGQSVTISCSGTSSDVGGYNYVSWYQQYPGKAPKLIIYDVNKRPSGVPDRFSGSKSDNTASLTISGLQADDESDYFCCSYAGSHTFEVFGTGTKVTVL"
measured_quantity = "Kd"
observed_value = "2.05 nM"

[[record]]
binder = "ADI-41448 (antibody, V domains shown, IgG1) VH: TVQLVESGAEVKSPGSSVRVSCQASGGSSNSYAISWVRQAPGQGLEWMGMISPLFGTTRFSQRFQGRVTITADKSTSTAYMELSSLNSEDTALYYCARGRFDFWSGPTRFYYTMDVWGQGTMVTVSS VL: QSVLIQPASVSGSPGQSITISCSGTSSDIGGYNYVSWYQQHPGKAPKLLISDVTDRPSGISDRFSGSKSGTSASLTISGLQADDEADYYCTSYTTSSTWVFGGGTKLTVL"
measured_quantity = "Kd"
observed_value = "2.75 nM"

